Reference for the values: PubChem BioAssay (EPA / NIEHS)

Experiment: TOX21_TR_RXR_BLA_Antagonist_Followup_viability: Viability Assessment in the Tox21 Thyroid Hormone Receptor beta Retinoid X Receptor alpha (RXRa) Antagonism Beta-lactamase (BLA) Follow-Up Assay (AID 2283979)
Records with an inconclusive call do not appear. Active and inactive are the calls of the source. Rule for the calls: active = hit-call score of the fitted dose curve at least 0.9, where 1 is the maximum; inconclusive = response in the unintended direction; inactive = score below 0.9.
ATTRIBUTE_MEASURED: AC50

Record excerpt, results attached:
>>> endpoint_result("CCc1nn(C)c(C(=O)NCc2ccc(C(C)(C)C)cc2)c1Cl")
"7.74 µM (active)"
>>> endpoint_result("CCCCNC(=O)n1c(NC(=O)OC)nc2ccccc21")
"inactive"
>>> endpoint_result("COC(=O)N(OC)c1ccccc1COc1ccn(-c2ccc(Cl)cc2)n1")
"7.9 µM (active)"
>>> endpoint_result("CO/C=C(/C(=O)OC)c1ccccc1Oc1cc(Oc2ccccc2C#N)ncn1")
"inactive"

Provide AC50 for all items below, preserving their order.
1. CN(C)C(=S)SSC(=S)N(C)C
2. CC(C)(C)c1ccc(CSc2cnn(C(C)(C)C)c(=O)c2Cl)cc1

Output line:
inactive
inactive

----------
Read-out: Vascular cell adhesion molecule 1 (VCAM1), VCAM1 (gene 7412)
Experiment: BSK_LPS_VCAM1: BioMAP Diversity Plus: LPS Assay for Vascular cell adhesion molecule 1 (VCAM1) Biomarker Activity (AID 2283086)
Details: primary human HUVEC with PBMC; actives raise or lower the signal
Active and inactive are the calls of the source. Rule for the calls: active = hit-call score of the fitted dose curve at least 0.9, where 1 is the maximum; inactive = score below 0.9.
Entry note: the call must match one of active, inactive

Record excerpt, results attached:
>>> group("COC(=O)C=C(C)OP(=O)(OC)OC")
"inactive"
>>> group("OC(c1ccc(Cl)cc1)(c1cncnc1)c1ccccc1Cl (configuration not stated)")
"inactive"
>>> group("CC1=C(C(=O)Nc2ccccc2)SCCO1")
"inactive"
>>> group("O=C(Nc1ccccc1)Nc1ccnc(Cl)c1")
"inactive"
>>> group("CCNc1nc(Cl)nc(NC(C)C)n1")
"inactive"
>>> group("CCOC(=O)C(Cl)Cc1cc(-n2nc(C)n(C(F)F)c2=O)c(F)cc1Cl (configuration not stated)")
"inactive"
>>> group("COC(=O)N(OC)c1ccccc1COc1ccn(-c2ccc(Cl)cc2)n1")
"active"
>>> group("CON(C)C(=O)Nc1ccc(Cl)c(Cl)c1")
"inactive"

Input line: Per the records of this test, what outcome belongs to CCCCC(CC)COC(=O)c1ccccc1C(=O)OCC(CC)CCCC (configuration not stated) ?
Output line: inactive

Input line: Per the records of this test, what outcome belongs to CCCC1COC(Cn2cncn2)(c2ccc(Cl)cc2Cl)O1 (configuration not stated) ?
Output line: inactive

Input line: Per the records of this test, what outcome belongs to CS/C(C)=N/OC(=O)N(C)SN(C)C(=O)O/N=C(\C)SC ?
Output line: active

Input line: Per the records of this test, what outcome belongs to CCCCNC(=O)n1c(NC(=O)OC)nc2ccccc21 ?
Output line: active

----------
Experiment: CCTE_Shafer_MEA_dev_LDH: CCTE's Lactate Dehydrogenase Assay for Cytotoxicity in the Neural Network Formation Assay, Shafer Lab (AID 2284068);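 note: exposure for twelve days from plating with re-dosing on DIV 5 and 9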
Records with an inconclusive call do not appear. Calls of active or inactive are those of the source. Rule for the calls: active = hit-call score of the fitted dose curve at least 0.9, where 1 is the maximum; inconclusive = response in the unintended direction; inactive = score below 0.9.
Entry note: the call must match one of active, inactive

Record excerpt, results attached:
>>> group("COP(=S)(OC)Oc1nc(Cl)c(Cl)cc1Cl")
"inactive"
>>> group("COc1ccc(C(c2ccc(OC)cc2)C(Cl)(Cl)Cl)cc1")
"active"
>>> group("CN(C)C(=S)SSC(=S)N(C)C")
"active"
>>> group("CC(C)(C)c1ccc(CSc2cnn(C(C)(C)C)c(=O)c2Cl)cc1")
"active"
>>> group("Cc1ccc(-c2c(Cl)nc(C#N)n2S(=O)(=O)N(C)C)cc1")
"active"

Pending compound:
Input line: Per the records of this test, what outcome belongs to CCCCOC(=O)c1ccccc1C(=O)OCCCC ?
Output line: active
